Provenance of the data: ChEMBL document CHEMBL3232986

Entries and their Papp values follow.
Assay: Permeability of the compound at pH 7.4 by PAMPA
Type: physicochemical
Settings: read-out: permeability
Respond numerically; units are ×10⁻⁶ cm/s and should not be typed.

compound: COc1ccc2c(c1)[C@@H]1C[C@]1(C(=O)N1CC34CCC3(CN(C(=O)N3CCOCC3)C4)C1)Cn1c-2c(C2CCCCC2)c2ccc(C(=O)NS(=O)(=O)N(C)C)cc21 (stereo partly drawn)
units.symbol: ×10⁻⁶ cm/s
experimental.result: 25.9

compound: CNC(=O)N1CC23COCC2(C1)CN(C(=O)[C@]12C[C@H]1c1cc(OC)ccc1-c1c(C4CCCCC4)c4ccc(C(=O)NS(=O)(=O)C(C)C)cc4n1C2)C3 (stereo partly drawn)
units.symbol: ×10⁻⁶ cm/s
experimental.result: 1.8

Q) Which Papp value belongs to CNC(=O)N1CC23COCC2(C1)CN(C(=O)[C@]12C[C@H]1c1cc(OC)ccc1-c1c(C4CCCCC4)c4ccc(C(=O)NS(=O)(=O)N(C)C)cc4n1C2)C3 (stereo partly drawn) ?
A) 3.7
